Recorded values, source ChEMBL document CHEMBL1201862.

# Tested on: UO-31
# measurement.description: NCI tumour cell line growth inhibition, 48 h
Calls of active or inactive are those of the source. Cut-off read from the data, not from the text of the source: active = GI50 up to about 1.1 µM and inactive = higher.
property.label: GI50

Exercise: Give GI50 only, for Cc1ccc(/C=C2/N/C(=N\N=C/C(O)C(O)C(O)C(O)CO)NC2=O)cc1 (stereo not drawn) , using UO-31 data.
Solution: > 100 µM (inactive)

Exercise: Give GI50 only, for CN1CCc2c(sc3nc(Nc4ccccc4)n(N)c(=O)c23)C1 , using UO-31 data.
Solution: > 100 µM (inactive)

Exercise: Give GI50 only, for CC(=O)Oc1cc(Cl)c(C)c2c1[C@H]1CC[C@]3(C)[C@@H](OC(C)=O)CC[C@H]3[C@@H]1CC2 , using UO-31 data.
Solution: > 100 µM (inactive)

Exercise: Give GI50 only, for N#CC1C=Cc2ccccc2N1C(=O)Oc1ccccc1 (stereo not drawn) , using UO-31 data.
Solution: 41.7 µM (inactive)

Exercise: Give GI50 only, for CCOC(=O)Nc1ccc(S(=O)(=O)OC)cc1.CCOC(=O)Nc1ccc(S(=O)(=O)OC)cc1.NC(=O)NCCO , using UO-31 data.
Solution: > 50 µM (inactive)

Exercise: Give GI50 only, for COc1cccc2c1NC(=O)Cc1c-2[nH]c2ccccc12 , using UO-31 data.
Solution: > 100 µM (inactive)

Exercise: Give GI50 only, for CC(=O)CC(=O)Nc1ccc(OS(N)(=O)=O)cc1 , using UO-31 data.
Solution: > 100 µM (inactive)

Exercise: Give GI50 only, for CC(=O)CCC1(C(=O)OCC(C)C)CCCC1=O (stereo not drawn) , using UO-31 data.
Solution: > 100 µM (inactive)

Exercise: Give GI50 only, for COC(=O)C1(C)CC2C(C)(CCC3(C)C4=CC=C5C(=CC(=O)C(O)=C5C)C4(C)CCC23C)CC1O (stereo not drawn) , using UO-31 data.
Solution: 1.35 µM (inactive)

Exercise: Give GI50 only, for CCOC(=O)CCC(=O)C1c2cccc(O)c2C(=O)c2c(O)cc(C)cc21 (stereo not drawn) , using UO-31 data.
Solution: 0.627 µM (active)

Exercise: Give GI50 only, for COc1ccc2nc(-c3ccc(O)cc3)sc2c1 , using UO-31 data.
Solution: 16.1 µM (inactive)

Exercise: Give GI50 only, for COc1ccc(NC(=O)CSc2nnc(Cc3ccccc3)o2)cc1 , using UO-31 data.
Solution: > 100 µM (inactive)

Exercise: Give GI50 only, for N#C/C(=C/NC(=S)NCc1ccccc1)C(N)=O , using UO-31 data.
Solution: 50.1 µM (inactive)

Exercise: Give GI50 only, for O=C1/C(=C/c2ccc([N+](=O)[O-])cc2)CCCc2ccccc21 , using UO-31 data.
Solution: > 100 µM (inactive)

Exercise: Give GI50 only, for O=C(c1ccccc1)n1[nH]c(=O)n(-c2ccc(Cl)cc2)c1=O , using UO-31 data.
Solution: > 100 µM (inactive)

Exercise: Give GI50 only, for COc1cc(/C=C2\CCC(C)C3=C(c4cc(OC)c(OC)c(OC)c4)C(C#N)=C(N)OC32)cc(OC)c1OC (stereo not drawn) , using UO-31 data.
Solution: 3.92 µM (inactive)

Exercise: Give GI50 only, for [O-]c1c[n+](CC[n+]2cc([O-])on2)no1 , using UO-31 data.
Solution: > 100 µM (inactive)

Exercise: Give GI50 only, for OC1C[C@H](c2ccccc2)C2(C(O)c3ccccc3C2O)[C@@H](c2ccccc2)C1 (stereo partly drawn) , using UO-31 data.
Solution: > 100 µM (inactive)

Exercise: Give GI50 only, for O=C1C=Cc2cscc21 , using UO-31 data.
Solution: 26.2 µM (inactive)

Exercise: Give GI50 only, for O=C(O)c1ccc(C(=O)Nc2cccc3ccccc23)c(C(=O)O)c1 , using UO-31 data.
Solution: > 100 µM (inactive)

Exercise: Give GI50 only, for O=C1C(Cl)=C(OCCCl)C(=O)c2c(O)ccc(O)c21 , using UO-31 data.
Solution: 5.36 µM (inactive)

Exercise: Give GI50 only, for NNC(=O)Cn1c2ccc(Br)cc2c2nc3ccccc3nc21 , using UO-31 data.
Solution: 19.9 µM (inactive)

Exercise: Give GI50 only, for N#C/C(C(=O)Nc1ccc(Cl)cc1)=C(/N)N1CCOCC1 , using UO-31 data.
Solution: 91 µM (inactive)

Exercise: Give GI50 only, for O=C1C=C(Nc2ccccc2C(=O)CC(=O)C(=O)Nc2cccc(C(F)(F)F)c2)c2ccccc2C1=O , using UO-31 data.
Solution: 31.2 µM (inactive)

Exercise: Give GI50 only, for O=C(Oc1ccc(S(=O)(=O)F)cc1F)c1ccccc1Cl , using UO-31 data.
Solution: 18.5 µM (inactive)

Exercise: Give GI50 only, for CCOC(=O)/C(C#N)=C(N)/C(=N\Nc1cccc(C(F)(F)F)c1)C(=O)OCC , using UO-31 data.
Solution: > 100 µM (inactive)

Exercise: Give GI50 only, for COc1ccccc1Cn1c2c(c3cc(O)ccc31)C(=O)c1ccccc1C2=O , using UO-31 data.
Solution: 48 µM (inactive)

Exercise: Give GI50 only, for CCOC(=O)C1C[C@H]2CO[C@H](c3ccccc3)N2C1=O (stereo partly drawn) , using UO-31 data.
Solution: > 100 µM (inactive)

Exercise: Give GI50 only, for COc1ccc(CN2C(=O)C(Cc3cc(OC)c(OC)c(C)c3OC)NC(=O)/C2=C/c2cc(OC)c(OC)c(C)c2OC)cc1 (stereo not drawn) , using UO-31 data.
Solution: 23.4 µM (inactive)

Exercise: Give GI50 only, for Br[Se]c1ccccn1 , using UO-31 data.
Solution: 17.1 µM (inactive)

Exercise: Give GI50 only, for Nn1c(Cc2ccc(Cl)cc2)n[nH]c1=O , using UO-31 data.
Solution: 34.3 µM (inactive)

Exercise: Give GI50 only, for NC1=NC(=O)/C(=C/c2ccccc2[N+](=O)[O-])C(N)=N1 , using UO-31 data.
Solution: > 100 µM (inactive)

Exercise: Give GI50 only, for CC[C@]1(Cc2ccc(OC)c(OC)c2)C=[N+]([O-])O[C@H](OCc2ccccc2)[C@@H]1OC(C)=O , using UO-31 data.
Solution: 32.1 µM (inactive)

Exercise: Give GI50 only, for CC1C2CC(CC(=O)N2)C1(C)C (stereo not drawn) , using UO-31 data.
Solution: > 100 µM (inactive)

Exercise: Give GI50 only, for Clc1nc(Cl)c(CBr)c(Cl)n1 , using UO-31 data.
Solution: 3.33 µM (inactive)

Exercise: Give GI50 only, for CCCCCCCCCCCCCCCCNc1ccc2c(c1)OCCOCCOCCOCCO2 , using UO-31 data.
Solution: 2.77 µM (inactive)

Exercise: Give GI50 only, for Cc1ccc(S(=O)OC23CC4CC(CC(C4)C2)C3)cc1 (stereo not drawn) , using UO-31 data.
Solution: 41.2 µM (inactive)

Exercise: Give GI50 only, for COc1cc(C2C3=C(COC3=O)OC(C)(C)Oc3cc4c(cc32)OCO4)cc(OC)c1OC (stereo not drawn) , using UO-31 data.
Solution: 0.426 µM (active)

Exercise: Give GI50 only, for O=CC1=C(C(=O)OC(c2ccccc2)c2ccccc2)N2C(=O)[C@@H](NC(=O)Cc3cccs3)[C@H]2SC1 , using UO-31 data.
Solution: 40 µM (inactive)

Exercise: Give GI50 only, for CC1CCCP(=O)(c2ccccc2)CC1 (stereo not drawn) , using UO-31 data.
Solution: > 100 µM (inactive)

Exercise: Give GI50 only, for CC(C)N(C(C)C)S(=O)(=O)CC12CCC(C/C1=N\O)C2 (stereo not drawn) , using UO-31 data.
Solution: > 100 µM (inactive)

Exercise: Give GI50 only, for COc1ccc2c3c1O[C@H]1C(O)CCC4(O)[C@@H](C2)NCC[C@]314 (stereo partly drawn) , using UO-31 data.
Solution: > 100 µM (inactive)

Exercise: Give GI50 only, for CC(=O)N1CCN(c2ccc(OCC3COC(Cn4ccnc4)(c4ccc(Cl)cc4Cl)O3)cc2)CC1 (stereo not drawn) , using UO-31 data.
Solution: 25.8 µM (inactive)
